Reported Ratio IC50 values are given for each entry in this list.
Assay: Selectivity index, ratio of IC50 for FXIa (unknown origin) to IC50 for FXIIa (unknown origin)

Answered cases to consult:
Nc1nc(-c2ccccn2)nn1C(=O)c1ccc(NC(=O)c2ccccc2)cc1 | > 150
CC(C)N1CCN(c2ccc(C(=O)n3nc(-c4ccccn4)nc3N)c3ccccc23)CC1 | > 670
Nc1nc(-c2ccccn2)nn1C(=O)c1cccc2ccccc12 | > 710
Nc1nc(-c2ccccn2)nn1C(=O)c1ccc(N2CCN(C3COC3)CC2)c2ccccc12 | > 640

Now for the compound whose Ratio IC50 we want.
Ratio IC50 in this record for CC(C)N1CCCN(c2ccc(C(=O)n3nc(-c4ccccn4)nc3N)c3ccccc23)CC1 : > 1190

###

The following compounds are shown together with reported Activity values.
Tested on: Plasma
Assay: Anticoagulant activity in human plasma assessed as prolongation of activated partial thromboplastin time at 300 uM incubated for 2 mins by aPTT reagent based assay relative to control
Type: functional
Could you give me the number in %? Just the number is fine.

Note to self: Activity recorded for Nc1nc(-c2ccccn2)nn1C(=O)c1ccc(NC(=O)c2ccccc2)cc1 was 35

Value of measured Activity for the entry CC(C)N1CCN(c2ccc(C(=O)n3nc(-c4ccccn4)nc3N)c3ccccc23)CC1 : 542

Record summary for CC(C)N1CCCN(c2ccc(C(=O)n3nc(-c4ccccn4)nc3N)c3ccccc23)CC1 : reported Activity = 905

Activity reading for Nc1nc(-c2ccccn2)nn1C(=O)c1ccc(N2CCN(C3COC3)CC2)c2ccccc12 : 472

// Activity lookup, compound = Nc1nc(-c2ccccn2)nn1C(=O)c1cccc2ccccc12 , result: 303

###

Target: Coagulation factor XII (Homo sapiens)
Sequence (P00748 20-372 limits assumed): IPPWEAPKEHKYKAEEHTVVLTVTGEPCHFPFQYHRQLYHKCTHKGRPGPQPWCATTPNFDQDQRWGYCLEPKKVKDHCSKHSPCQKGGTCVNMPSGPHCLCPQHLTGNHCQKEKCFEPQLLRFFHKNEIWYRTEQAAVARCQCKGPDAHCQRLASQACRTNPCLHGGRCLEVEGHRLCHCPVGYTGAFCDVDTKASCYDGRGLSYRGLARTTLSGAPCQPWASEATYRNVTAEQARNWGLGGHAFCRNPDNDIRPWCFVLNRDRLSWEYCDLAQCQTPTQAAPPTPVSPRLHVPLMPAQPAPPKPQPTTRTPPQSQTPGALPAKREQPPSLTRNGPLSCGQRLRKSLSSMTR
Sequence (P00748 373-615 limits assumed): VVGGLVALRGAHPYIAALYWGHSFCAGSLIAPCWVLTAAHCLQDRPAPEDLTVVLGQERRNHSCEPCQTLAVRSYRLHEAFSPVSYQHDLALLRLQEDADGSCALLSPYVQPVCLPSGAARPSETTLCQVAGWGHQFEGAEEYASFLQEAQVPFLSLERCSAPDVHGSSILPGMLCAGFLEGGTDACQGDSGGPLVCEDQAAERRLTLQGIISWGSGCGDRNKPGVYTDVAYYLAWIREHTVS
Assay: Inhibition of human FXIIa (unknown origin)
readout.type: pIC50
Entry type: numeric. Quantity: pIC50, the -log10 of concentration in molar units.

Cc1cc(N2CCn3c(nnc3C(F)(F)F)[C@@H]2C)ncc1CNc1cccc2c(N)nccc12 | 8.00

Consider Nc1nccc2c(NCC34COC(COc5ccn6ccnc6c5)(C3)C4)cccc12 . Its measured pIC50 is 7.00

###

Experiment: Half life in BALB/c mouse at 1 mg/kg, iv measured upto 24 hrs by LC-MS/MS analysis
Format: ADME, organism-based
Conditions: in vivo
readout.type: half-life (min)
A number alone suffices; assume min.

Value of measured half-life for the entry CC(C)N1CCCN(c2ccc(C(=O)n3nc(-c4ccccn4)nc3N)c3ccccc23)CC1 : 45

###

Assay: Oral bioavailability in BALB/c mouse at 5 mg/kg measured upto 24 hrs by LC-MS/MS analysis
Format: ADME, organism-based
Details: in vivo
readout.type: bioavailability (%)
// return numeric value only (unit: %, not printed)

The value of bioavailability measured for the compound CC(C)N1CCCN(c2ccc(C(=O)n3nc(-c4ccccn4)nc3N)c3ccccc23)CC1 turned out to be 28.2

###

# IC50 annotations
Target: Chymotrypsin (Homo sapiens, UniProt Q99895+P17538+P40313+Q6GPI1)
Assay: Inhibition of Chymotrypsin (unknown origin) using N-Suc-Ala-Ala-Pro-Phe-pNA as chromogenic substrate incubated for 20 mins followed by substrate addition by spectrophotometric analysis
Assay type: protein assay

For orientation, consider the following solved cases.
CC(C)N1CCN(c2ccc(C(=O)n3nc(-c4ccccn4)nc3N)c3ccccc23)CC1 | > 25 µM
Nc1nc(-c2ccccn2)nn1C(=O)c1ccc(N2CCN(C3COC3)CC2)c2ccccc12 | > 25 µM
Nc1nc(-c2ccccn2)nn1C(=O)c1cccc2ccccc12 | > 5 µM
CC(C)N1CCCN(c2ccc(C(=O)n3nc(-c4ccccn4)nc3N)c3ccccc23)CC1 | > 25 µM

The recorded IC50 for entry Nc1nc(-c2ccccn2)nn1C(=O)c1ccc(NC(=O)c2ccccc2)cc1 equals > 5 µM

###

Test: Selectivity index, ratio of IC50 for PKal (unknown origin) to IC50 for FXIIa (unknown origin)
Documented Ratio IC50 across a set of compounds

Summary for this compound, Nc1nc(-c2ccccn2)nn1C(=O)c1ccc(N2CCN(C3COC3)CC2)c2ccccc12 : Ratio IC50 is > 640

// CC(C)N1CCN(c2ccc(C(=O)n3nc(-c4ccccn4)nc3N)c3ccccc23)CC1 : Ratio IC50 value = > 670

Reported Ratio IC50 for Nc1nc(-c2ccccn2)nn1C(=O)c1ccc(NC(=O)c2ccccc2)cc1 was > 150

For CC(C)N1CCCN(c2ccc(C(=O)n3nc(-c4ccccn4)nc3N)c3ccccc23)CC1 the compound record lists Ratio IC50 as > 1190

The compound listed as Nc1nc(-c2ccccn2)nn1C(=O)c1cccc2ccccc12 shows Ratio IC50 equal to > 710

###

Test: MRT(0 to infinity) in BALB/c mouse at 5 mg/kg, po measured upto 24 hrs by LC-MS/MS analysis
Format: ADME, organism-based
Conditions: in vivo
readout.type: MRT inf (h)
Return type: number; implicit unit h.

Documented MRT inf of CC(C)N1CCCN(c2ccc(C(=O)n3nc(-c4ccccn4)nc3N)c3ccccc23)CC1 : 1.6

###

Assay: Tmax in BALB/c mouse at 5 mg/kg, po measured upto 24 hrs by LC-MS/MS analysis
Format: ADME, organism-based
Conditions: in vivo
readout.type: Tmax (h)
Please state the figure in h; there is no need to write the unit.

Short answer for CC(C)N1CCCN(c2ccc(C(=O)n3nc(-c4ccccn4)nc3N)c3ccccc23)CC1 : Tmax was 1

###

Target or system Coagulation factor XII (Homo sapiens, UniProt P00748); recorded quantity Ki.
Your answer should be a plain number; it is taken to be in µM.

Nc1nc(-c2ccccn2)nn1C(=O)c1cccc2ccccc12 | 0.0435

Now turn to the next compound.
Kindly note: Coagulation factor XII (Homo sapiens, UniProt P00748), CC(C)N1CCCN(c2ccc(C(=O)n3nc(-c4ccccn4)nc3N)c3ccccc23)CC1 , Ki value reported: 0.0114

###

The next entries give measured IC50 for Tissue-type plasminogen activator (Homo sapiens).

CC(C)N1CCN(c2ccc(C(=O)n3nc(-c4ccccn4)nc3N)c3ccccc23)CC1 | > 25 µM

Short answer for CC(C)N1CCCN(c2ccc(C(=O)n3nc(-c4ccccn4)nc3N)c3ccccc23)CC1 : IC50 was > 25 µM

###

Reported IC50 by item:
Target: Plasma kallikrein (Homo sapiens)
Sequence (P03952 20-390 limits assumed): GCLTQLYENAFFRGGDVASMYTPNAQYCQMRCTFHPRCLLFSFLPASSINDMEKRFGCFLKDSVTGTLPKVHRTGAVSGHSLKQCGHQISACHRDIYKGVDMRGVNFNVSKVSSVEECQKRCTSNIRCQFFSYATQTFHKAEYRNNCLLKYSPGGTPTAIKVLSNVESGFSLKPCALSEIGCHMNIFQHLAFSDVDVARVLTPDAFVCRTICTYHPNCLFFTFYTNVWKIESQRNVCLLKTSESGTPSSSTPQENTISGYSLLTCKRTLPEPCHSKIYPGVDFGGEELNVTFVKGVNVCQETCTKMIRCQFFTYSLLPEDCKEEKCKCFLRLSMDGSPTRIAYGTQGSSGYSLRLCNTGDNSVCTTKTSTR
Sequence (P03952 391-638 limits assumed): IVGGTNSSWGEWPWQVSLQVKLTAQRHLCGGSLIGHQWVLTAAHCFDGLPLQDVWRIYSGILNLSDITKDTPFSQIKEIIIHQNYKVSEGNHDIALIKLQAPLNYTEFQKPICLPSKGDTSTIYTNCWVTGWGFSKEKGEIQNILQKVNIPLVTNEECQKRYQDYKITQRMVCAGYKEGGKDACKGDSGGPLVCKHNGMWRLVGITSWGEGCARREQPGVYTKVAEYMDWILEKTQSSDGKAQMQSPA
Test: Inhibition of PKal (unknown origin) using H-D-Pro-Phe-Arg-pNA-2HCl as substrate incubated for 20 mins followed by substrate addition by spectrophotometric analysis

CC(C)N1CCN(c2ccc(C(=O)n3nc(-c4ccccn4)nc3N)c3ccccc23)CC1 | > 25 µM

// sample Nc1nc(-c2ccccn2)nn1C(=O)c1ccc(NC(=O)c2ccccc2)cc1 , its IC50 was > 25 µM

Consider CC(C)N1CCCN(c2ccc(C(=O)n3nc(-c4ccccn4)nc3N)c3ccccc23)CC1 . Its measured IC50 is > 25 µM

Record Nc1nc(-c2ccccn2)nn1C(=O)c1cccc2ccccc12 , field IC50: > 25 µM

Record summary for Nc1nc(-c2ccccn2)nn1C(=O)c1ccc(N2CCN(C3COC3)CC2)c2ccccc12 : reported IC50 = > 25 µM

###

Data export: pIC50 values recorded with Prothrombin (Homo sapiens).
Keep in mind that pIC50 stands for -log10 of concentration in molar terms.

Past entries and their recorded results:
CC(C)N1CCN(c2ccc(C(=O)n3nc(-c4ccccn4)nc3N)c3ccccc23)CC1 | 4.70
Nc1nc(-c2ccccn2)nn1C(=O)c1ccc(N2CCN(C3COC3)CC2)c2ccccc12 | 4.70
CC(C)N1CCCN(c2ccc(C(=O)n3nc(-c4ccccn4)nc3N)c3ccccc23)CC1 | 5.15

Now for another entry.
Per the record, Nc1nc(-c2ccccn2)nn1C(=O)c1cccc2ccccc12 has pIC50 of 6.44
